Values from PubChem BioAssay

protocol-text: splicing luciferase reporter signal modulators, primary screen, spliceosome inhibition project, cell-based, HEK293, splice +/- reporter (AID 1101);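 note: HEK293 cells carrying a splicing-competent luciferase reporter gene; test concentration not given here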
details: luminescence, 24 h, higher = more signal, called active from +8 up or from −8 down
Activity calls are given as the source filed them.
This listing pairs compounds with measured z-score.

Examples from the recorded data:
[in] Return z-score (reported value) for this compound: `CCCNC(=O)OC[C@H]1O[C@H](CCON=C2C[C@@H](O)[C@@H](O)[C@@H]3[C@@H]4C(=O)N(CC)C(=O)[C@@H]4CC[C@@H]23)C=C[C@@H]1Oc1ccc(OC)cc1`
[out] 0.264 (inactive)

[in] Input `CC#CCOCCC=C1c2ccccc2[C@@H](OC)[C@@H]1C` , output reported z-score.
[out] 0.478 (inactive)

[in] Supply reported z-score belonging to this compound: `CO[C@@H]1C=CCC(=O)N[C@@H](C)C(=O)OC[C@@H](NS(=O)(=O)c2ccc(C)cc2)[C@H](C)C=CCC(=O)OC[C@H]1C`
[out] -0.275 (inactive)

[in] Answer with the recorded z-score for the compound listed here: COC(=O)[C@H](C)NC(=O)CCC1CC(OC(=O)NCCc2ccc(F)cc2)CC2(CCCC(COC(=O)NCCOc3ccccc3)O2)O1 (stereo not given in full)
[out] 0.587 (inactive)

[in] Look up and report measured z-score for this entry: `COc1cccc([C@H]2Oc3ccc(OC)cc3C(=NOCC[C@@H]3C=C[C@H](OC(C)=O)[C@@H](COC(C)=O)O3)[C@@H]2O)c1`
[out] -0.019 (inactive)

[in] Could you please provide reported z-score for `CCN1C(=O)[C@H]2[C@H]3[C@H](O)[C@H](O)CC(=NOCC(C)C)[C@H]3CC[C@H]2C1=O` ? Thanks!
[out] 0.72 (inactive)

[in] Retrieve z-score measured for `CC(C)=NO[C@H](C)c1cn([C@@H]2COC[C@H]2O)nn1` and print it.
[out] -0.413 (inactive)

[in] Answer with reported z-score of `Cc1ccc(S(=O)(=O)N[C@@H]2COC(=O)CC=C[C@@H](C)[C@H](NS(=O)(=O)c3ccc(C)cc3)COC(=O)[C@H](C)NC(=O)CC=C[C@H]2C)cc1`
[out] -0.294 (inactive)

[in] Give z-score for `CCc1cc2c(nc1CC)CCN(CCC(C)=NOC[C@@H](C)[C@H](OCc1ccccc1)C(C)C)C2`
[out] -1.3 (inactive)

[in] Supply z-score value. Item: `CC(=O)OC[C@H]1O[C@H](CC=NO[C@@H](C)c2cn([C@H](CO)Cc3ccccc3)nn2)C=C[C@@H]1OC(C)=O`
[out] -1.54 (inactive)

New cases:
[in] Give the reported value of z-score for this record: `C#CCCCON=C1C[C@@H](O)[C@@H](O)[C@@H]2[C@@H]3C(=O)N(C4CCCCC4)C(=O)[C@@H]3CC[C@@H]12`
[out] 0.466 (inactive)

---

assay-system: Neurogenic locus notch homolog protein 2 (Homo sapiens) (UniProt Q04721)
Sequence (Q04721 whole entry, looked up): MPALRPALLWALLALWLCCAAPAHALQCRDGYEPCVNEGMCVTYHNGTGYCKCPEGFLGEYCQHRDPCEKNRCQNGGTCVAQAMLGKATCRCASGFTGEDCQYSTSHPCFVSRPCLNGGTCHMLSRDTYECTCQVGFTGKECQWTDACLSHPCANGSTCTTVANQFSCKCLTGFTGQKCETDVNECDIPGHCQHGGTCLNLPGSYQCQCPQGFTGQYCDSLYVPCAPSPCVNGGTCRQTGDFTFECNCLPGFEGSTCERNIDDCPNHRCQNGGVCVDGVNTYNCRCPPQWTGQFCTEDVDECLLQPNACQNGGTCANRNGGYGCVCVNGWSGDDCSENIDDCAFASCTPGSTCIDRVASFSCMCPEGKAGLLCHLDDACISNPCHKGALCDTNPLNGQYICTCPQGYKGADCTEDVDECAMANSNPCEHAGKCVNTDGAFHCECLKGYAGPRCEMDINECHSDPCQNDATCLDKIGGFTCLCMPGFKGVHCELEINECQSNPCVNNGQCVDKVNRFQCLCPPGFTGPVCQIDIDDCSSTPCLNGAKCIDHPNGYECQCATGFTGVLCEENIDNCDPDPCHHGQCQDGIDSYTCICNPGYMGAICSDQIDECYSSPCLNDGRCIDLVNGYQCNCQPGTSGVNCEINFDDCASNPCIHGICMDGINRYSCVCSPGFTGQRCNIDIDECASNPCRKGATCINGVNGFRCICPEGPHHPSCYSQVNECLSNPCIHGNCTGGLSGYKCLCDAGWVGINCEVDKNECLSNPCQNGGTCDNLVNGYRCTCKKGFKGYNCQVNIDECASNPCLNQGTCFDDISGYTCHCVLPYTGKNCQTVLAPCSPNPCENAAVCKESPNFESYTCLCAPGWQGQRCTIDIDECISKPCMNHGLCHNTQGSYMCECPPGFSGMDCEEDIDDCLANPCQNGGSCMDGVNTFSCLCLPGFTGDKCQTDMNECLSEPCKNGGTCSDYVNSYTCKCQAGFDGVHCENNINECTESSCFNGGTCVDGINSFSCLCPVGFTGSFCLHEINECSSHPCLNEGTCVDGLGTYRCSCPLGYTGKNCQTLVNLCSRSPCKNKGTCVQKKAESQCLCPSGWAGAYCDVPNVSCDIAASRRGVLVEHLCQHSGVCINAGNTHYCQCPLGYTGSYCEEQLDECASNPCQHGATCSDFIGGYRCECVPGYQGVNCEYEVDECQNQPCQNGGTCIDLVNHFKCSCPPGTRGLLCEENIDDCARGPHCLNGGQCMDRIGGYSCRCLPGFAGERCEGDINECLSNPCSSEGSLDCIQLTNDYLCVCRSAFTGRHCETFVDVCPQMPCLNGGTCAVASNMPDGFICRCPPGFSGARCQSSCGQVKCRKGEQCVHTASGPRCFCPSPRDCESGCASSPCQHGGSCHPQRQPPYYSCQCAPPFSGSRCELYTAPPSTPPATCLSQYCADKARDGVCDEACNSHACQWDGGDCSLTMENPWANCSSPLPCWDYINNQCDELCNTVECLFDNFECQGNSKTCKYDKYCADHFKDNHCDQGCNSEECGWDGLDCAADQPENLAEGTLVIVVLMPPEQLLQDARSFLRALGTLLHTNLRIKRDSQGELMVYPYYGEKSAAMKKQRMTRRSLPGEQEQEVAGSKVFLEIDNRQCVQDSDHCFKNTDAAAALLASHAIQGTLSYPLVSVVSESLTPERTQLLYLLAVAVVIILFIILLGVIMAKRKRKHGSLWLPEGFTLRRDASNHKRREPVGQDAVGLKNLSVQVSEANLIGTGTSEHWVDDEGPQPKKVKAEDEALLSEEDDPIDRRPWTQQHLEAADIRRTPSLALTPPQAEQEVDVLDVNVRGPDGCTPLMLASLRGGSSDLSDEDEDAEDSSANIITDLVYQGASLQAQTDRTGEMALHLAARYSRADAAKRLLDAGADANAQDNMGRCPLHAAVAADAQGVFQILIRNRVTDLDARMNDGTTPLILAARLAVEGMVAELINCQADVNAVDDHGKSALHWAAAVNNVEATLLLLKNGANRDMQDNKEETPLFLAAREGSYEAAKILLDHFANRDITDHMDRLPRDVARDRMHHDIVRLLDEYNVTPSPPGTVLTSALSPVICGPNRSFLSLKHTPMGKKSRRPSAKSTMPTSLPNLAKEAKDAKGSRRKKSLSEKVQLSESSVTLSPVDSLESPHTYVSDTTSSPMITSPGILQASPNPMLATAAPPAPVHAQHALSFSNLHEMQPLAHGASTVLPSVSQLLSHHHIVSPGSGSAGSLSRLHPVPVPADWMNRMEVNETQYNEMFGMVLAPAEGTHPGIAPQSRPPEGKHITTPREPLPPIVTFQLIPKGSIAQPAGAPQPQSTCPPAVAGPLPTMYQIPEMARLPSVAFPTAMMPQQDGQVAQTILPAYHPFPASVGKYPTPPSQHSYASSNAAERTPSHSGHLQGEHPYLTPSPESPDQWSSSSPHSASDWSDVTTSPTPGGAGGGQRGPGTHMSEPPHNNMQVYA
protocol-text: Notch2 binders on small-molecule microarrays, primary screen, biochemical, small-molecule microarray, 635 nm fluorescence, stem cell growth factors (AID 1073)
details: Notch2 binding, higher = more signal
measurement-name: composite z-score
Would you mind answering with just the numeric figure?

[in] Tell me measured composite z-score for `CC#CCOCCC=C1c2ccccc2[C@@H](OC)[C@@H]1C` please.
[out] 0.105

Proceed to the following item.
[in] Give the measured composite z-score for `CO[C@H]1C[C@@H]2C[C@H](O)CC(CC(=O)O[C@@H](C=CCC(C)C)C[C@@H]3CC[C@H](C)[C@@H](C1)O3)O2`
[out] 1.03

---

protocol-text: small-molecule binders of probe aInhba, primary screen, biochemical, small-molecule microarray, 635/667 nm fluorescence (AID 1148);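 note: score merges 667nm spot fluorescence with signal-to-noise for antibody binding to printed compounds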
details: higher = more signal
Below is a list of entries, each paired with its recorded composite z-score value.
Could you respond with only the numeric value?

Here are 5 compounds together with their reported answers.
[in] State its composite z-score: `O=C1C[C@@H](O)[C@@H](O)[C@@H]2[C@@H]3C(=O)N(c4ccc(F)cc4F)C(=O)[C@@H]3CC[C@H]12`
[out] -0.101

[in] Check the records and state composite z-score for `CO[C@H]1COC(=O)[C@H](C)COC(=O)[C@@H](OCc2ccccc2)C=C[C@@H]1C`
[out] -0.273

[in] Write down composite z-score measured for item `C=CC[C@@H]1C=C[C@H](ON=C(C)CCN2CCCc3nc(C)c(C)cc32)[C@@H](CO)O1`
[out] 0.528

[in] Return composite z-score (reported value) for this compound: `CC(CCN1CCCCc2nc(C)c(C)cc21)=NO[C@@H](C)c1cc(-c2c(C)cc(C)cc2C)no1`
[out] -0.211

[in] // fetch composite z-score given entry `COC(=O)CC=C1c2ccccc2[C@H](OC)[C@H]1C`
[out] 0.0275

New cases:
[in] Quick one: give measured composite z-score for `CC(C)=NO[C@H](C)c1cn([C@@H]2COC[C@H]2O)nn1`
[out] -0.0963

[in] Determine from records and report composite z-score for `CSCC[C@@H]1NC(=O)CC=C[C@@H](C)COC(=O)[C@H](C)COC1=O`
[out] -0.17

[in] Give composite z-score for the following compound: `CC(C)=CCCC(C)=CCON=C1C[C@@H](O)[C@@H](O)[C@@H]2[C@@H]3C(=O)N(c4cccc(Oc5ccccc5)c4)C(=O)[C@@H]3CC[C@H]12`
[out] -0.128

[in] Tell us which composite z-score value is on record for `COc1ccc(COC(=O)NN=C2C[C@@H](O)[C@@H](O)[C@@H]3[C@@H]4C(=O)N([C@@H](C)c5ccccc5)C(=O)[C@@H]4CC[C@H]23)cc1`
[out] 0.0667

[in] Return value of composite z-score for input `CC(C)[C@@H](OCc1ccccc1)[C@H](C)CON=C1[C@H]2CCn3c(=O)n(-c4ccccc4)c(=O)n3[C@H]2[C@H](O)[C@@H]2O[C@H]12` , no commentary.
[out] -0.128

[in] Please indicate composite z-score recorded for `CC(C)[C@@H](OCc1ccccc1)[C@H](C)C=NO[C@H](C)c1cn([C@@H]2COC[C@H]2O)nn1`
[out] -0.0843

---

System: Fibrinogen (Alexa647-labelled)
protocol-text: fibrinogen binders on compound microarrays, profiling panel, artefact control for SMM control-protein annotation, biochemical, small-molecule microarray, 635/667 nm fluorescence (AID 1131);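 note: z-score merges 667 nm fluorescence with per-spot signal-to-noise over triplicate slides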
details: fibrinogen-A647 binding fluorescence, higher = more signal
Dear colleague, classification is by composite z-score, with ranges listed here: low: < 0.1; middle: ≥ 0.1 and < 0.6; high: ≥ 0.6

Worked examples, 5 compounds total:
[in] Which composite z-score category applies to `CCOC(=O)CCN1C(=O)[C@H]2[C@H]3[C@H](O)[C@H](O)CC(=O)[C@@H]3CC[C@H]2C1=O` here?
[out] middle

[in] Using the reported composite z-score, which band applies to `OC[C@H]1O[C@H](C#Cc2ccccc2)C=C[C@@H]1O` ?
[out] high

[in] Assign a category based on measured composite z-score for `O=C1[C@H]2[C@H]3[C@H](O)[C@H](O)CC(=NO[C@@H]4O[C@H](CO)[C@@H](O)[C@H](O)[C@H]4O)[C@@H]3CC[C@H]2C(=O)N1C1CCCCC1` and give only the class name.
[out] middle

[in] # bin label for `O=C(NN=C1C[C@@H](O)[C@@H](O)[C@@H]2[C@@H]3C(=O)N(c4ccc(F)cc4F)C(=O)[C@@H]3CC[C@H]12)OCc1ccccc1`
[out] middle

[in] Into which bin does this compound go? `O=C1[C@H]2[C@H]3[C@H](O)[C@H](O)CC(=NOC[C@@H](O)COCc4ccco4)[C@@H]3CC[C@H]2C(=O)N1c1cccc(Oc2ccccc2)c1`
[out] low

Next up:
[in] Category of `Cc1cc(C)c(-c2cc([C@H](C)ON=C[C@@H](C)[C@H](OCc3ccccc3)C(C)C)on2)c(C)c1` , please.
[out] low

---

protocol-text: PSAC antagonists in infected red cells, primary screen, cell-based, P. falciparum Indochina, OD700, 2 h (AID 1155);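 note: lysis reports solute entry through the parasite surface anion channel PSAC; channel blockers reduce lysis of infected cells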
details: P. falciparum Indochina infected erythrocytes, osmotic lysis OD700; higher = more signal, called active from +8 up or from −8 down
Item-by-item account of z-score
Write the value as a bare number.

Illustrative cases are given below, each with its answer.
[in] Return value of z-score for input `CON=C[C@@H](OC)[C@H](C)C=CCC(=O)OC` , no commentary.
[out] 0.325

[in] Annotate the compound `CC(CCN1CCCCc2nc(C)c(C)cc21)=NO[C@@H](C)c1cc(-c2c(C)cc(C)cc2C)no1` with its measured z-score.
[out] 0.49

[in] Check the records and state z-score for `CON=C(C)CCC(=O)OC[C@H]1O[C@H](C#Cc2ccccc2)C=C[C@@H]1Oc1ccc(C)cc1`
[out] 0.277

Next:
[in] Give me measured z-score, please, for this compound: CC(=O)OC[C@H]1O[C@H](CC=NOC(C)CN2CCCCc3nc(C)c(C)cc32)C=C[C@@H]1OC(C)=O (stereo partly drawn)
[out] 0.324
